- MEASUREMENT TARGET: alpha-thrombin (Homo sapiens, UniProt P00734;P00734 P00734:328-363,P00734:364-622)
- TEST DESCRIPTION: filter; ±0.3; Fbmax 80.6; same buffer, 22 C
ENDPOINT LABEL: pKd
The quantity pKd is defined as the negative base-10 logarithm of the molar concentration.

Kindly note the recorded pKd for Clone 2 (ssRNA) RNA: GGAGAGGUAAGUAGAACGAGCCCGGCGUCACAAGAUAGACAAAACUAAGUGACACAAAGCCCGG , which is 8.46
